Reference source for all entries: paper PMC3240648

- RUN DESCRIPTION: in vivo
- TEST SETTINGS: male, CD-1, mouse
ASSAY READOUT: bioavailability

[[record]]
molecule = "CC1(C)C[C@H](O)C[C@](C)(CNc2ccc(Cl)c(S(N)(=O)=O)c2)C1 [RO5487624]"
assay_readout = "bioavailability"
value = "> 70%"


###

- System: Influenza A/Human/Hubei/3/2005 (H3N2)
- RUN DESCRIPTION: microbe, parasite or virus in culture
- Type: cell-based, Influenza A virus
- TEST SETTINGS: Influenza A virus, H3N2, MDCK, 72 h, read-out: CPE (EC50) A/Human/Hubei/3/2005 (H3N2)
pEC50: −log10 of the molar value.
ASSAY READOUT: pEC50

[[record]]
molecule = "CC1(C)C[C@H](O)C[C@](C)(CNc2ccc(Cl)c(S(N)(=O)=O)c2)C1 [RO5487624]"
value = "< 4.00"

[[record]]
molecule = "CC1(C)CC(O)CC(C)(CNc2cccc(S(N)(=O)=O)c2)C1 (centres unmarked) [RO5464466]"
value = "< 4.00"

